Each record here notes measured AC50.
testedTarget: Cytochrome P450 2D6 (Homo sapiens);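 also: CYP2D6 member of a cytochrome P450 panel assay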
Sequence (P10635 whole entry): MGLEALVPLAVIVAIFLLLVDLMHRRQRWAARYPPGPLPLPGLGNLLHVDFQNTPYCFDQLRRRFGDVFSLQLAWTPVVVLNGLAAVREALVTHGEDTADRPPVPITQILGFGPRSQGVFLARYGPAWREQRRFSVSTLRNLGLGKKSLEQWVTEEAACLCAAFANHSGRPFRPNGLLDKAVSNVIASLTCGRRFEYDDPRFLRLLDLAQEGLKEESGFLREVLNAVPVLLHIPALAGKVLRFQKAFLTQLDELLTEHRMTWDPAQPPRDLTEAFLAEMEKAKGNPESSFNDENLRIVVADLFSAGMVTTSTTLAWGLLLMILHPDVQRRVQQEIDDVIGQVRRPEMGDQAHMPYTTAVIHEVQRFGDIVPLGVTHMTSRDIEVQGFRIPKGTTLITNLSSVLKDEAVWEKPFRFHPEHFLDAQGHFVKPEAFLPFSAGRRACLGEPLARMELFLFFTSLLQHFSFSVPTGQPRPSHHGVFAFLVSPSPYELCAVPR

| molecule | obsValue |
| --- | --- |
| N#Cc1c(NC(=O)C(F)(F)F)sc2c3c(=O)c4ccccc4c(=O)c=3oc3ccccc3c12 | 0.794 µM (inconclusive) |
| COc1ccccc1NC(=O)CC1COc2ccccc2O1 (configuration not stated) | 12.6 µM (inconclusive) |
| CCCCn1c(SCC(=O)NC(C)(C)C)nnc1-c1ccco1 | 12.6 µM (inconclusive) |
| CO[C@H]1C=C2CCN(C)[C@@H]2[C@@H]2c3cc4c(cc3C(=O)O[C@H]21)OCO4 | 10 µM (inconclusive) |
| COc1cnc(SCc2ccc(Cl)cc2)nc1Cl | 17.8 µM (inconclusive) |
| O=C(OC[C@@H](O)CO)c1ccccc1Nc1ccnc2cc(Cl)ccc12 | 12.6 µM (inconclusive) |
| O=C(Nc1ccc(OC(F)(F)F)cc1)c1n[nH]c(Cn2cncn2)n1 | 20 µM (inconclusive) |
| CC(C)CC1CC(=O)OC1(C)C(=O)CSc1nc2ccccc2s1 (configuration not stated) | 3.55 µM (inconclusive) |
| CN(C)c1ncc2nc(CCc3ccccc3)c(=O)n(C3CC3)c2n1 | 10 µM (inconclusive) |
| CCCCCC1=C2CNC(C)(C(=O)OC)C=C2C(C)C1=O (configuration not stated) | 25.1 µM (inconclusive) |

Query :: Read the entry CSc1ccc(S(=O)(=O)Nc2ccc3c4c(cccc24)CC3)cc1 and write its reported AC50.
Result :: 14.1 µM (inconclusive)

Query :: Read the entry O=C(c1ccc(COc2ccc(F)cc2)o1)n1cccn1 and write its reported AC50.
Result :: 0.00562 µM (inconclusive)
